- test-system: T1, murine IL-21R extracellular domain His-Flag fusion protein (murine, UniProt Q9JHX3 20-237)
- T1 construct: Biotinylated in the ELISAs; also called mIL-21R-H/F; murine IL-21R-H/F
- assay-details: SPR, Ab captured on anti-human IgG
readout-kind: koff (s⁻¹)

binder	result-number
AbP (antibody, human IgG1, V domains shown, CDR3 graft, residue limits derived as for m29; also called VHP/VL20; VHPTM/VL20) VH: QVQLQESGPGLVKPSETLSLTCAVSGYSISSGYYWGWIRQPPGKGLEWIGSISHTGNTYYNPPLKSRVTISVDTSKNQFSLKLSSVTAADTAVYYCARGGGISRPEYWGQGTLVTVSS VL: SSELTQDPAVSVALGQTVRITCQGDSLRTYYASWYQQKPGQAPVLVIYGKHKRPSGIPDRFSGSSSGNTASLTITGAQAEDEADYYCVSRSAKGNPHVLFGGGTQLTVL	0.00508
AbR (antibody, human IgG1, V domains shown, CDR3 graft, residue limits derived as for m29; also called VH3/VL18; VH3DM/VL18) VH: QVQLQESGPGLVKPSETLSLTCAVSGYSISSGYYWGWIRQPPGKGLEWIGSISHTGNTYYNPPLKSRVTISVDTSKNQFSLKLSSVTAADTAVYYCARFMGFGRPEYWGQGTLVTVSS VL: SSELTQDPAVSVALGQTVRITCQGDSLRTYYASWYQQKPGQAPVLVIYGKHKRPSGIPDRFSGSSSGNTASLTITGAQAEDEADYYCVTRSVKGNPHVLFGGGTQLTVL	0.00493
AbS (antibody, V domains shown, CDR3 graft, residue limits derived as for m29; also called VHP/VL6; VHPTM/VL6) VH: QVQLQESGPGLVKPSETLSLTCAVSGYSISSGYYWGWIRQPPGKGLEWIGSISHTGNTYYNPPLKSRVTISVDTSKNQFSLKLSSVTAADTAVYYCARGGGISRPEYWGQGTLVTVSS VL: SSELTQDPAVSVALGQTVRITCQGDSLRTYYASWYQQKPGQAPVLVIYGKHKRPSGIPDRFSGSSSGNTASLTITGAQAEDEADYYCMSRSIWGNPHVLFGGGTQLTVL	0.00332
